testName: Thermodynamic (equilibrium) solubility, saturation shake-flask, in Prisma HT buffer
Format: physicochemical
conditionSummary: aqueous buffer, thermodynamic from solid, pH 9.00, 37 °C, read-out: Equilibrium solubility S ± SD
measuredAttribute: solubility thermodynamic at 6 h (µg/mL)
Hi! Could you send only the number? It should be in µg/mL, unit omitted.

Ask: For CCCc1nc2c(C)cc(-c3nc4ccccc4n3C)cc2n1Cc1ccc(-c2ccccc2C(=O)O)cc1 , what is its reported solubility thermodynamic at 6 h?
Reply: 130

----------
testName: UV/pH titration in MeOH-water mixtures with Yasuda–Shedlovsky extrapolation
Type: physicochemical
conditionSummary: methanol-water mixtures, UV/pH titration in MeOH-water mixture, 25 °C, aqueous value by Yasuda–Shedlovsky extrapolation; read-out: pKa3 ± SD (Terminal Benzimidazole Ring)
measuredAttribute: pKa
Respond numerically, and do not add a unit to the figure.

Ask: For CCCc1nc2c(C)cc(-c3nc4ccccc4n3C)cc2n1Cc1ccc(-c2ccccc2C(=O)O)cc1 [Telmisartan, telmisartan] , what is its reported pKa?
Reply: 6.14

----------
testName: UV/pH titration in aqueous medium (pKa determination)
Type: physicochemical
conditionSummary: aqueous 0.15 M KCl solution, UV/pH titration in aqueous medium, 37 °C, I = 0.15 M KCl; read-out: pKa2 ± SD (Middle Benzimidazole Ring)
measuredAttribute: pKa
Respond numerically, and do not add a unit to the figure.

Ask: For CCCc1nc2c(C)cc(-c3nc4ccccc4n3C)cc2n1Cc1ccc(-c2ccccc2C(=O)O)cc1 [Telmisartan, telmisartan] , what is its reported pKa?
Reply: 4.08

----------
testName: Thermodynamic (equilibrium) solubility, saturation shake-flask, in Prisma HT buffer
Type: physicochemical
conditionSummary: aqueous buffer, thermodynamic from solid, pH 3.08, 37 °C, read-out: Equilibrium solubility logS ± SD (converted)
measuredAttribute: solubility thermodynamic at 6 h (µM)
Hi! Could you send only the number? It should be in µM, unit omitted.

Ask: For CCCc1nc2c(C)cc(-c3nc4ccccc4n3C)cc2n1Cc1ccc(-c2ccccc2C(=O)O)cc1 , what is its reported solubility thermodynamic at 6 h?
Reply: 25.1

----------
testName: Analysis of solubility-pH data with pDISOL-X
Assay type: physicochemical
conditionSummary: thermodynamic from solid, from thermodynamic solubility-pH data in distilled water, read-out: calculated intrinsic solubility logS0 (converted)
measuredAttribute: solubility (µM)
Hi! Could you send only the number? It should be in µM, unit omitted.

Ask: For CCCc1nc2c(C)cc(-c3nc4ccccc4n3C)cc2n1Cc1ccc(-c2ccccc2C(=O)O)cc1 [Telmisartan, telmisartan] , what is its reported solubility?
Reply: 0.302

----------
testName: Thermodynamic (equilibrium) solubility, saturation shake-flask, in distilled water
Type: physicochemical
conditionSummary: pH 2.66, 37 °C, read-out: Equilibrium solubility logS ± SD (converted)
measuredAttribute: solubility thermodynamic at 6 h (µM)
Hi! Could you send only the number? It should be in µM, unit omitted.

Ask: For CCCc1nc2c(C)cc(-c3nc4ccccc4n3C)cc2n1Cc1ccc(-c2ccccc2C(=O)O)cc1 , what is its reported solubility thermodynamic at 6 h?
Reply: 20.9

----------
testName: UV/pH titration in MeOH-water mixtures with Yasuda–Shedlovsky extrapolation
Assay type: physicochemical
conditionSummary: methanol-water mixtures, UV/pH titration in MeOH-water mixture, 25 °C, aqueous value by Yasuda–Shedlovsky extrapolation; read-out: pKa2 ± SD (Middle Benzimidazole Ring)
measuredAttribute: pKa
Respond numerically, and do not add a unit to the figure.

Ask: For CCCc1nc2c(C)cc(-c3nc4ccccc4n3C)cc2n1Cc1ccc(-c2ccccc2C(=O)O)cc1 , what is its reported pKa?
Reply: 4.19
